The measurements presented in this section are drawn from PubChem BioAssay (NCI).

Test system: OVCAR-3 ovarian
Assay: NCI tumour cell line growth inhibition, 48 h

Compound	Tested on	TGI
CC(=O)O[C@@]12CO[C@@H]1C[C@H](O)[C@@]1(C)C(=O)[C@H](O)C3=C(C)[C@@H](OC(=O)[C@H](O)[C@@H](NC(=O)OC(C)(C)C)c4ccccc4)C[C@@](O)([C@@H](OC(=O)c4ccccc4)[C@H]21)C3(C)C	OVCAR-3 ovarian	0.0244 µM
Clc1cc2c(cc1Cl)Oc1cc(Cl)c(Cl)cc1O2	OVCAR-3 ovarian	> 0.625 µM
N#Cc1ncc(-c2ccc(C(F)(F)F)cc2)c(NCc2cc(C(F)(F)F)cc(C(F)(F)F)c2)n1	OVCAR-3 ovarian	22.7 µM
N/C(=C\C(=O)n1nc(-c2ccccc2)cc1N)c1ccccc1	OVCAR-3 ovarian	6.46 µM
C=C1[C@H](OC(=O)C(C)C)[C@]23CC4(O)[C@@H]5[C@@]6(C)CCC[C@]57C([C@@H]2C[C@@]1(O)[C@H](O)[C@@H]73)N4C6	OVCAR-3 ovarian	> 100 µM
COC(=O)c1cc2c3c(cc(N(C)C)c2[nH]1)N(C(=O)c1cc2cc(OC)c(OC)c(OC)c2[nH]1)CC3CCl (configuration not stated)	OVCAR-3 ovarian	0.0136 µM
COC(=O)CC1C(COC(C)=O)OC(n2cc(C)c(=O)[nH]c2=O)C1OC(C)=O (configuration not stated)	OVCAR-3 ovarian	> 100 µM
